Known inhibition of a selection of compounds
experiment: polyglutamine-triggered caspase-3 activation inhibitors, cell-based (AID 1583); conditions: polyglutamine-induced caspase-3 activation, cell assay; stronger effect = higher value;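 tested at 10 µM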
The figure you give is taken to be in %; do not add the unit.

Below, 2 compounds whose answers are already recorded.
COc1c2ccoc2cc2oc(=O)ccc12 :: -19.8
O=C(O)c1cc([N+](=O)[O-])ccc1NCCCc1ccccc1 :: 58.5

Could you share which inhibition value was measured for CC(=O)Nc1ccc(OC(=O)c2ccccc2O)cc1 ? -0.86

Could you share which inhibition value was measured for CCn1cc(C(=O)O)c(=O)c2ccc(C)nc21 ? 1.35

The measured values listed here are drawn from PubChem BioAssay.
